Assay: In vitro stability in human plasma/PBS (1:2 v/v) at 37 °C
Type: in vitro ADME
Conditions: human blood plasma/PBS (1:2 v/v), pH 7.4, 6 h, read-out: % intact peptide in human plasma after the given incubation time
From the text: […]
observation type: remaining at 6 h, 100 µM

Q) Please indicate remaining at 6 h, 100 µM recorded for CC(C)C[C@H](NC(=O)[C@@H](NC(=O)[C@H](Cc1ccc(O)cc1)NC(=O)[C@@H]1CCCN1C(=O)[C@H](CCCNC(=N)N)NC(=O)[C@@H](N)CCCNC(=N)NC(=O)NCCCCN)C(C)(C)C)C(=O)O [Compound 14]
A) < 1%

Q) Identify remaining at 6 h, 100 µM associated with the compound CN[C@@H](CCCNC(=N)NC(=O)NCCCCNC(=O)CCc1cn([C@@H]2O[C@H](CF)[C@@H](O)[C@H](O)[C@H]2O)nn1)C(=O)N[C@@H](CCCNC(=N)N)C(=O)N1CCC[C@H]1C(=O)N[C@@H](Cc1ccc(O)cc1)C(=O)N[C@H](C(=O)N[C@@H](CC(C)C)C(=O)O)C(C)(C)C [Compound 21]
A) > 99%

Q) Complete the entry with remaining at 6 h, 100 µM for CN[C@@H](CCCNC(=N)N)C(=O)N[C@@H](CCCNC(=N)NC(=O)NCCCCc1cn([C@@H]2O[C@H](CF)[C@@H](O)[C@H](O)[C@H]2O)nn1)C(=O)N1CCC[C@H]1C(=O)N[C@@H](Cc1ccc(O)cc1)C(=O)N[C@H](C(=O)N[C@@H](CC(C)C)C(=O)O)C(C)(C)C [Compound 13]
A) > 99%

Q) Input C#CCCC(=O)NCCCCNC(=O)NC(=N)NCCC[C@H](N)C(=O)N[C@@H](CCCNC(=N)N)C(=O)N1CCC[C@H]1C(=O)N[C@@H](Cc1ccc(O)cc1)C(=O)N[C@H](C(=O)N[C@@H](CC(C)C)C(=O)O)C(C)(C)C [Compound 18] , output reported remaining at 6 h, 100 µM.
A) < 1%

Q) Give me measured remaining at 6 h, 100 µM, please, for this compound: CN[C@@H](CCCNC(=N)NC(=O)NCCCCN)C(=O)N[C@@H](CCCNC(=N)N)C(=O)N1CCC[C@H]1C(=O)N[C@@H](Cc1ccc(O)cc1)C(=O)N[C@H](C(=O)N[C@@H](CC(C)C)C(=O)O)C(C)(C)C [Compound 16]
A) > 99%

Q) Tell me its remaining at 6 h, 100 µM given C#CCCC(=O)NCCCCNC(=O)NC(=N)NCCC[C@H](NC)C(=O)N[C@@H](CCCNC(=N)N)C(=O)N1CCC[C@H]1C(=O)N[C@@H](Cc1ccc(O)cc1)C(=O)N[C@H](C(=O)N[C@@H](CC(C)C)C(=O)O)C(C)(C)C [Compound 19] as the entry.
A) > 99%
